Source: ChEMBL document CHEMBL3867472

- Tested target: Free fatty acid receptor 4 (Homo sapiens)
- Method summary: Agonist activity at human GPR120 expressed in CHOK1 cells measured after 60 mins by IP1-HTRF assay relative to basal level
- Format: functional, cell-based
- Parameters: concentration or dose not given beside the values
- Test conditions: CHO-K1
Quick reference for Activity among some molecules
Note: a bare number is incomplete; add the unit.

molecule=CCOc1ccc(F)c(-c2ccc(OCCCC(=O)O)cc2)c1 result=71%
molecule=Cc1cc(-c2cc(OC(F)(F)F)ccc2F)ccc1OCCCC(=O)O result=52%
molecule=O=C(O)CCCOc1ccc(-c2ccccc2C(F)(F)F)cc1 result=31%
molecule=Cc1cc(-c2cc(OC(F)(F)F)ccc2F)cc(C)c1OCCCC(=O)O result=87%
molecule=O=C(O)CCCOc1ccc(-c2ccccc2Oc2ccccc2)cc1 result=25%

Specify measured Activity for Cc1cc(-c2cc(OC(F)(F)F)ccc2Cl)cc(C)c1OCCCC(=O)O .
61%

Give the reported Activity for this molecule. O=C(O)CCCOc1ccc(-c2cc(OC3CC3)ccc2F)cc1
68%

Indicate the recorded Activity value for this molecule: Cc1cc(OC2CCC2)cc(-c2ccc3oc(CCC(=O)O)cc3c2)c1
51%

Indicate its recorded Activity; the molecule in question is O=C(O)CCc1cc2cc(-c3cc(OC(F)(F)F)ccc3Cl)ccc2o1
69%

Quote Activity reported for O=C(O)CCCOc1ccc(-c2cc(OC(F)(F)F)ccc2Cl)cc1 please.
71%

For O=C(O)CCCOc1ccc(-c2cc(Oc3ccccc3)ccc2F)cc1 , write its Activity.
71%

Note down Activity recorded for CC(CC(=O)O)c1cc2cc(-c3cc(OC(F)(F)F)ccc3F)ccc2o1 (racemic)
24%

Tell us which Activity value is on record for O=C(O)CCCOc1ccc(-c2cc(Oc3cccc(F)c3)ccc2Cl)cc1
80%

Respond only with Activity recorded for O=C(O)CCc1cc2cc(-c3cccc(OC(F)(F)F)c3)ccc2o1
48%

Write down Activity measured for item COc1cccc(Oc2cccc(-c3ccc(OCCCC(=O)O)cc3)c2)c1
19%

Provide Activity value for the following molecule: CC(Cc1cc2cc(-c3cc(OC(F)(F)F)ccc3F)ccc2o1)C(=O)O (racemic)
10%
